The measurements presented in this section are drawn from BindingDB's records for doi:10.1021/acsmedchemlett.9b00225.

- TARGET UNDER TEST: UniProt P41595
- Sequence (P41595 whole entry): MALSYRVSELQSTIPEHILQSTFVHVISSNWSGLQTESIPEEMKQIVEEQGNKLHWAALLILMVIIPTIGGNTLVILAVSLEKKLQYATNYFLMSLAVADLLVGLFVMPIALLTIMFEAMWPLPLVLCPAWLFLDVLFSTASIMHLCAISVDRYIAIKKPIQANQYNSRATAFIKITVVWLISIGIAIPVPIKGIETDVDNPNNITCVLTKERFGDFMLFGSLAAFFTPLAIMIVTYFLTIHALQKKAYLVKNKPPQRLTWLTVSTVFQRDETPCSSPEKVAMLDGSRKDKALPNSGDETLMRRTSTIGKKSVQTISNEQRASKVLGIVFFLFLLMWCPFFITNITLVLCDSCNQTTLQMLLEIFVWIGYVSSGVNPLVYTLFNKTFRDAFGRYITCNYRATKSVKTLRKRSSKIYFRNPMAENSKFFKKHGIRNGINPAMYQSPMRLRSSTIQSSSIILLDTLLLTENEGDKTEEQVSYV
- ASSAY PROTOCOL: Displacement of [3H]-LSD from human recombinant 5-HT2B receptor stably expressed in HEK cells after 90 mins by microbeta scintillation counting method
MEASURED ENDPOINT: Ki (nM)
Answer with a number only, understood to be in nM.

Which Ki reading was recorded for the molecule CC[C@H]1c2ccc3ccccc3c2OC[C@@]1(C)N ? 2.51

====

- TARGET UNDER TEST: Sigma non-opioid intracellular receptor 1 (Homo sapiens)
- Sequence (Q99720 whole entry): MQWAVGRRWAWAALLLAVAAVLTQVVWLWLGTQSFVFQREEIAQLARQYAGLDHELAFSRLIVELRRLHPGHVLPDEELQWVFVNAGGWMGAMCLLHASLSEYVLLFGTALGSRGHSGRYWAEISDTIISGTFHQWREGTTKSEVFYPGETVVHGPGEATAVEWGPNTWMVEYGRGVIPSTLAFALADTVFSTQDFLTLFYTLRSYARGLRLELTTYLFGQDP
- ASSAY PROTOCOL: Displacement of [3H]-Pentazocine from human recombinant sigma1 receptor expressed in HEKT cells after 90 mins by microbeta scintillation counting method
MEASURED ENDPOINT: Ki (nM)
Answer with a number only, understood to be in nM.

Which Ki reading was recorded for the compound CC[C@H]1c2cc(-c3ccccc3)ccc2OC[C@@]1(C)N ? 12.6
